Assignment: determine reported RM0 (chromatographic parameter of lipophilicity) for the given compounds.
assayDetails: Experimental lipophilicity by RP-TLC
experimentalSetup: RP-TLC, acetone/TRIS 0.2 M pH 7.4, extrapolated to zero acetone
One number for each entry.

Record RM0 (chromatographic parameter of lipophilicity) for all entries; do not skip any.
1. O=C1C(Cl)=C(Oc2cccc3ccc(N4CCCC4)nc23)C(=O)c2cnccc21
2. O=C1C(Cl)=C(Oc2cccc3ccc(Cl)nc23)C(=O)c2cnccc21

[2.83, 3.25]

Each compound below has a recorded value; state its RM0 (chromatographic parameter of lipophilicity).
1. O=Cc1ccc2cccc(OC3=C(Cl)C(=O)c4ccncc4C3=O)c2n1
2. O=C1C(Cl)=C(Oc2cccc3ccc(N4CCCC4)nc23)C(=O)c2ccccc21
3. O=C1C(Cl)=C(Oc2cccc3ccc(N4CCOCC4)nc23)C(=O)c2cnccc21

[2.45, 3.72, 3.30]

Dear colleague, could you please provide RM0 (chromatographic parameter of lipophilicity) for the compounds listed below?
1. Clc1ccc(C(c2ccc(Cl)cc2)C(Cl)(Cl)Cl)cc1 [F, dichlorodiphenyltrichloroethane, reference compound]
2. CC(=O)c1ccc(Br)cc1 [C, 4-bromoacetophenone, reference compound]

5.60
2.33

---

Give RM0 (chromatographic parameter of lipophilicity) for every item shown.
assayDetails: Experimental lipophilicity by RP-TLC
experimentalSetup: pH 7.4
Give bare numbers.

The cases that follow already have their RM0 (chromatographic parameter of lipophilicity) on record.
O=C1C(Cl)=C(Oc2cccc3cccnc23)C(=O)c2ncccc21
1.51
Cc1ccc2c(n1)C(=O)C(Oc1cccc3cccnc13)=C(Cl)C2=O
2.09

Now look at this entry.
Name the recorded RM0 (chromatographic parameter of lipophilicity) for `Cc1ccc2c(n1)C(=O)C(Oc1cccc3ccc(C)nc13)=C(Cl)C2=O` .
1.82

---

Give chromatographic logP for every item shown.
assayDetails: Experimental lipophilicity by RP-TLC
Protocol: The RP-TLC method was used to determine the experimental lipophilicity according to the literature. […] The RM parameter was calculated for every concentration of acetone and extrapolated to zero concentration of organic solvent in the mobile phase. The chromatographic parameter of lipophilicity (RM0) was calculated using Equation (2):(2) RM=RM0+bC where C is the concentration of acetone in the mobile phase, while b is the slope of the regression plot. […]
Answers are plain numbers.

O=C1C(Cl)=C(Oc2cccc3ccc(N4CCCC4)nc23)C(=O)c2ncccc21
2.6
O=Cc1ccc2cccc(OC3=C(Cl)C(=O)c4ccncc4C3=O)c2n1
2.72
c1ccc2cc3ccccc3cc2c1 [E, anthracene, reference compound]
4.45

Let us examine a further case.
Using the record for `Cc1ccc2c(n1)C(=O)C(Oc1cccc3ccc(N4CCOCC4)nc13)=C(Cl)C2=O` , report its chromatographic logP.
2.98

---

assayDetails: Experimental lipophilicity by RP-TLC
measuredEndpoint: chromatographic logP
One number for each entry.

Solved entries:
Cc1ccc2c(n1)C(=O)C(Oc1cccc3ccc(C=O)nc13)=C(Cl)C2=O
2.26
O=C1C(Cl)=C(Oc2cccc3ccc(Cl)nc23)C(=O)c2ccccc21
5.06

// next item, chromatographic logP requested
Consider the compound `O=C1C(Cl)=C(Oc2cccc3ccc(N4CCCC4)nc23)C(=O)c2ccccc21` and give its measured chromatographic logP.
4.16

The measurements presented in this section are drawn from paper PMC9867208.
